Numbers sourced from ChEMBL document CHEMBL3400037.

# Tested on: Escherichia coli
# EXPERIMENTAL PROTOCOL: Induction of Escherichia coli supercoiled plasmid pBR322 DNA cleavage at 0.5 uM after 3 hrs at 37 degC using ethidium bromide by gel electrophoresis
Active and inactive are the calls of the source. No cut-off for these calls is given here.
ASSAY ENDPOINT: Activity

> print(dat)
                                   compound     tested.target  recorded.result
1  CC1(C)CC(Cl)CN(CCCN2CC(Cl)CC(C)(C)C2)C1 (centres undefined)  Escherichia coli           Active
2  CC1(C)CC(Cl)CN(CCCCN2CC(Cl)CC(C)(C)C2)C1 (centres undefined)  Escherichia coli           Active
3  CC1(C)CC(Cl)CN(CCCCCCN2CC(Cl)CC(C)(C)C2)C1 (centres undefined)  Escherichia coli           Active
4  CC1(C)CC(Cl)CN(CCCCCN2CC(Cl)CC(C)(C)C2)C1 (centres undefined)  Escherichia coli           Active
